- EXPERIMENTAL_TARGET: T1, Cynomolgus Factor P (cynomolgus)
- T1 construct: Purified from cynomolgus serum for SET/Biacore; Factor P of cynomolgus serum in the functional assays; also called Cyno Factor P; cyno FP
- MEASUREMENT_PROTOCOL: Biacore SPR, captured Factor P
Recorded kon, one value per entry.
Report as a plain number; the unit M⁻¹ s⁻¹ is understood.

BINDER	kon, M⁻¹ s⁻¹
NVS966 (Fab, V domains shown, Disulfide-bridged Fab; also called Fab NVS966) VH: EVQLVQSGAEVKKPGESLKISCKGSGYSFTNYWIGWVRQMPGKGLEWMGRIDPGESLTNYAPSFQGQVTISADKSISTAYLQWSSLKASDTAMYYCARTGVADVDMPFAHWGQGTLVTVSS VL: SYVLTQPPSVSVAPGKTARISCSGDNLGSYYVNWYQQKPGQAPVLVIYGDSERPSGIPERFSGSNSGNTATLTISRAQAGDEADYYCGSWDITSFVFGGGTKLTVLG	1e+06
NVS964 (Fab, V domains shown, Disulfide-bridged Fab; also called Fab NVS964) VH: EVQLVQSGAEVKKPGASVKVSCKASGYTFTSHYMHWVRQAPGQGLEWMGKINADLGDTNYAQKFQGRVTMTRDTSISTAYMELSSLRSEDTAVYYCARDGIEHGGHYYWGYLFDIWGQGTLVTVSS VL: SYELTQPPSVSVAPGQTARISCSGDSIREYYVHWYQQKPGQAPVLVIGDDTNRPSGIPERFSGSNSGNTATLTISGTQAEDEADYYCAAWDFSPAIVFGGGTKLTVLG	1e+06

As a next step, examine the binder that follows.
Measured kon of NVS965-S (Fab, V domains shown, NVS965 with heavy chain N30 replaced with serine) VH: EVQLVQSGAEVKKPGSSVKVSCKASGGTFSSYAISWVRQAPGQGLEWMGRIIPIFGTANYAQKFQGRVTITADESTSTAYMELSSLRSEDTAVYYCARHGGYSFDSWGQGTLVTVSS VL: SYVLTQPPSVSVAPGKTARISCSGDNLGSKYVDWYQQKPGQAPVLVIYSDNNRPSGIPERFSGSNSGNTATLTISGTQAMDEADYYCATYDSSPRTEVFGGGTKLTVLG : 2.71e+06
